# Test System: T1, human GM-CSFRα, full length on cells (human, UniProt P15509 23-400)
# T1 sequence: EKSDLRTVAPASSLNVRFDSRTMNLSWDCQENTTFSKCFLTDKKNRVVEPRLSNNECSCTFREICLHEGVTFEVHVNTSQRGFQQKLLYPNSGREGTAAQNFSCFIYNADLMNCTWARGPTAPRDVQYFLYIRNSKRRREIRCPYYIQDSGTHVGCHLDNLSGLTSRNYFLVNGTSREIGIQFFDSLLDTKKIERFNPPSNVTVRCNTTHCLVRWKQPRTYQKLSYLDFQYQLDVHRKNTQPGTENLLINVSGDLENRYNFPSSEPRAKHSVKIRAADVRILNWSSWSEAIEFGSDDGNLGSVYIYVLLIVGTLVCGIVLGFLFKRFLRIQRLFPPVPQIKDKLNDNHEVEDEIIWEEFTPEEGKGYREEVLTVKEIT
# Experiment Summary: cell-based or functional assay
Could you please report measured IC50, TF-1 cell proliferation for the items listed next?
Report the value in µg/mL with no unit label.

Qu. Give its IC50, TF-1 cell proliferation value. Item: E35-scFv LS26L (scFv, V domains shown) VH: QMQLVQSGAEVKKPGASVKVSCKVSGYTLTELSIHWVRQAPGKGLEWMGGFDPEDGETIYAQKFQGRVTMTGDTSTDTAYLELSSLRSEDTALYYCATGRYTSLATTYGFDYWGQGTLVTVSS VL: EIVMTQSPATLSLSPGERATLSCRALQSVSSYLAWYQQKPGQAPRLLIYGASSRATGIPDRFSGSGSGTDFTLTISRLEPEDFAVYYCQQYDNWPYTFGQGTKLEIK
Ans. 0.044

Qu. Try E35-scFv LS30N (scFv, V domains shown) VH: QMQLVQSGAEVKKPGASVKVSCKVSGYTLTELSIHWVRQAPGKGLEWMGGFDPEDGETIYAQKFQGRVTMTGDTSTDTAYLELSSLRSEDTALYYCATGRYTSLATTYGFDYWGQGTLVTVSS VL: EIVMTQSPATLSLSPGERATLSCRASQSVNSYLAWYQQKPGQAPRLLIYGASSRATGIPDRFSGSGSGTDFTLTISRLEPEDFAVYYCQQYDNWPYTFGQGTKLEIK next.
Ans. 0.132

Qu. Try E35-scFv LS31H (scFv, V domains shown) VH: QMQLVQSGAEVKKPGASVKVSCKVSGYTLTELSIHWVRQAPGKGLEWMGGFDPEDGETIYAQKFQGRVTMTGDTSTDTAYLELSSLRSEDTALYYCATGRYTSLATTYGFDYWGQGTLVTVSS VL: EIVMTQSPATLSLSPGERATLSCRASQSVSHYLAWYQQKPGQAPRLLIYGASSRATGIPDRFSGSGSGTDFTLTISRLEPEDFAVYYCQQYDNWPYTFGQGTKLEIK next.
Ans. 0.106
